target_or_test_system: T1, recombinant mouse DLL4 (mouse, UniProt Q9JI71 27-532)
T1 construct: extracellular domain; also called rmDLL4; mDLL4
T1 sequence (Q9JI71 27-532): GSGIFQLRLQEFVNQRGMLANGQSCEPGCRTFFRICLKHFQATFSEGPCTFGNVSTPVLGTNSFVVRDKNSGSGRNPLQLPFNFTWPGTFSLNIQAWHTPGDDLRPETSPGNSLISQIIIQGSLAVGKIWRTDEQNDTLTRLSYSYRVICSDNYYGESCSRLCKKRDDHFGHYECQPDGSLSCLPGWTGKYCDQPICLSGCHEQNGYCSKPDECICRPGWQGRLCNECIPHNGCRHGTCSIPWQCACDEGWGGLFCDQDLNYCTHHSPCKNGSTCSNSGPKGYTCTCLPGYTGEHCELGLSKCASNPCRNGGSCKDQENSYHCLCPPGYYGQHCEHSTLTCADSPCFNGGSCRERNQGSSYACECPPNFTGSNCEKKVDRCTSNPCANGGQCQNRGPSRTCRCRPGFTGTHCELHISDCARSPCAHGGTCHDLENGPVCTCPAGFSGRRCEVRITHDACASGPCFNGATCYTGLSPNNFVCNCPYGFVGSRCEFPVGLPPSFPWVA
test: binding ELISA, coated rmDLL4
Description: In order to determine cross-reactivity to mouse DII4 a binding ELISA is performed. […] Wells are blocked with a casein solution (1% in PBS). VHHs are applied as dilution series and binding is detected using a mouse anti-myc (Roche) and an anti-mouse-AP conjugate (Sigma, St Louis, Mo., USA) (FIG. 7 A-H). As reference, binding to human DII4 is measured.
value_kind: pEC50
Please treat pEC50 as minus the base-10 logarithm of the molar concentration.

DLLBII56H08 (VHH) VHH: EVQLVESGGGLVQPGGSLRLSCAASGFTFDDYAIGWFRQAPGKEPEEISCISSSGGITYYADSVKGRFTISRDNAKNTVYLQMNSLKPEDTAVYYCATPGIAACRGIHYTGQGTQVTVSS: 8.06
DLLBII56C04 (VHH) VHH: EVQLVESGGGLVQPGGSLRLSCTASGFTFDVYAIGWFRQAPGKEPEGISCISSSGSITYYADSVKGRFTTSRDSAKNTVYLQMNSLKPEDTAVYYCATPGIAACRGIHYWGQGTQVTVSS: 6.61
DLLBII115A05 (VHH, also called 115A5; DLLBII115A5) VHH: EVQLVESGGGLVQPGGSLRLSCAASGFTFGSYDMSWVRRSPGKGPEWVSSINSGGGSTYYADFVKGRFTISRDNAKNTLYLQMNSLKPEDTAVYYCAADRYIRARQGDYWGAYEYDYWGQGTQVTVSS: 7.48
DLLBII19F04 (VHH) VHH: EVQLVESGGGLVQAEGSLRLSCAASGSTFSTYAMAWYRQAPGKQRELVAGISFDGSTHYAESVKGRFTISRDDAKNTVSLQMNSLKPEDAAVYYCYSVHPSTGFGSWGQGTQVTVSS: 9.10
DLLBII55D12 (VHH) VHH: EVQLVESGGGLVQPGGSLRLSCAASGFTFDDYAIGWFRQAPGKEPEGISCISSSGGITYYADSVKGRFTISRDNAKNTVYLQMNSLKPEDTAVYYCATPGIAACRGIHYTGQGTQVTVSS: 7.52

# evaluate next
// recorded pEC50 for DLLBII56A09 (VHH, also called 56A9; DLLBII56A9) VHH: EVQLVESGGGLVQPGGSLRLSCAASGFTFDDYAIGWFRQAPGKEPEGISCISSSGGITYYADSVKGRFTTSRDNAKNTVYLQMNSLKPEDTAVYYCATPGIAACRGIHYTGQGTQVTVSS : 8.20
